Reported IC50 values for a set of molecules
target: human, KCNT1 (Homo sapiens (Human), UniProt Q5JUK3)
Sequence (Q5JUK3 whole entry): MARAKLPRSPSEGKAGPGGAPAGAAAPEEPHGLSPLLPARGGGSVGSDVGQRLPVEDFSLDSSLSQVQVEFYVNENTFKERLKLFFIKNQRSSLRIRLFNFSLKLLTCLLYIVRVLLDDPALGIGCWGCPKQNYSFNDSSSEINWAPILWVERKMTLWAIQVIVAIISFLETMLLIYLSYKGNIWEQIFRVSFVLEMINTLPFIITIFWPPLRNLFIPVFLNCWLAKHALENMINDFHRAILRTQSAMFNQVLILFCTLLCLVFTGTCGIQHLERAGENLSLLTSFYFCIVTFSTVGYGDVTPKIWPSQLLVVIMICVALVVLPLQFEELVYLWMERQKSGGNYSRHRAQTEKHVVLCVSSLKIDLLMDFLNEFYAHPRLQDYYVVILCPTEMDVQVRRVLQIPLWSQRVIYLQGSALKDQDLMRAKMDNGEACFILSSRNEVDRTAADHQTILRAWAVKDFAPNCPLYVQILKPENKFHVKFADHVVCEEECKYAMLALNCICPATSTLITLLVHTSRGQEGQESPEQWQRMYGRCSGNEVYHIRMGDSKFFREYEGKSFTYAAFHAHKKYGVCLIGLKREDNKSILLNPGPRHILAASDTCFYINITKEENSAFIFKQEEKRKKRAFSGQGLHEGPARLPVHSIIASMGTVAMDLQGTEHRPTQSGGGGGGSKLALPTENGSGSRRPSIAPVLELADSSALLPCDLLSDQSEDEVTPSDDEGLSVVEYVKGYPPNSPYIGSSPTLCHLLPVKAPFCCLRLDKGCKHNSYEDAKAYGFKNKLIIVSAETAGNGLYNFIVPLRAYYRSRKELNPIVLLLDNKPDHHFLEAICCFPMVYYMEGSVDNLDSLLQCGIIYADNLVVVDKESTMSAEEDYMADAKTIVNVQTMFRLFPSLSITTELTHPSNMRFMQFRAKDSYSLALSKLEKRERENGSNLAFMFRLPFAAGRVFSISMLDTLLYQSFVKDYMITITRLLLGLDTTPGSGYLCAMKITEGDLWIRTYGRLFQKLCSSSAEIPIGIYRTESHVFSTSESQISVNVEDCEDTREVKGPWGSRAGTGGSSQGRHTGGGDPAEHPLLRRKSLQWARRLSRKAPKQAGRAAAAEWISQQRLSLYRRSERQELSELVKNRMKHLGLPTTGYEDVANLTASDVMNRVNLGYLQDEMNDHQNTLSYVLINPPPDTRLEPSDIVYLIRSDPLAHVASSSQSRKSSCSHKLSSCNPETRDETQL
measurement.description: FLIPR Tl/K Flux Assay
Format: cell-based
condition: HEK293 cells stably expressing human KCNT1; Tl+ flux stimulated with EC80 of agonist Loxapine
measured.parameter: IC50

molecule="CCOc1cc(-n2cc3c(n2)CCCC3NC(=O)c2cc(Cl)cc(C(F)(F)F)c2)ccn1 (racemic) [Compound I-14]" target="human, KCNT1 (Homo sapiens (Human), UniProt Q5JUK3)" measured_parameter=IC50 meas_value="< 250 nM"
molecule="COc1cc(C(=O)N[C@H]2CCCn3nc(-c4ccnc(C(F)(F)F)c4)cc32)ccn1 [Compound I-330a]" target="human, KCNT1 (Homo sapiens (Human), UniProt Q5JUK3)" measured_parameter=IC50 meas_value="< 250 nM"
molecule="CCOc1cc(C(=O)NC2CCCc3nn(-c4ccnc(C(F)(F)F)c4)cc32)n(C)n1 (racemic) [Compound I-22]" target="human, KCNT1 (Homo sapiens (Human), UniProt Q5JUK3)" measured_parameter=IC50 meas_value="250 to 500 nM"
molecule="N#Cc1ccc(C(=O)N[C@H]2CCCn3nc(-c4ccnc(C(F)(F)F)c4)cc32)cc1 [Compound I-349a]" target="human, KCNT1 (Homo sapiens (Human), UniProt Q5JUK3)" measured_parameter=IC50 meas_value="< 250 nM"
molecule="COc1cc(-c2nc3c(o2)CCC[C@@H]3NC(=O)c2cc(F)cc(C#N)c2)ccn1 [Compound I-275a]" target="human, KCNT1 (Homo sapiens (Human), UniProt Q5JUK3)" measured_parameter=IC50 meas_value="< 250 nM"
molecule="Cn1nc(C(F)(F)F)nc1C(=O)N[C@H]1CCn2nc(-c3cc(C4CC4)ncc3F)cc21 [Compound I-483a]" target="human, KCNT1 (Homo sapiens (Human), UniProt Q5JUK3)" measured_parameter=IC50 meas_value="< 250 nM"
molecule="Cn1nc(C(F)(F)F)nc1C(=O)N[C@H]1CCn2nc(-c3ccnc(C4CC4)c3)cc21 [Compound I-205a]" target="human, KCNT1 (Homo sapiens (Human), UniProt Q5JUK3)" measured_parameter=IC50 meas_value="< 250 nM"
molecule="COc1cc(-c2cc3n(n2)CCC3NC(=O)c2nc(C(F)(F)F)nn2C)ccn1 (single isomer, unassigned) [Compound I-473]" target="human, KCNT1 (Homo sapiens (Human), UniProt Q5JUK3)" measured_parameter=IC50 meas_value="> 1000 nM"
molecule="COc1cc(-c2nc3c(o2)[C@@H](NC(=O)c2cccc(OC(F)(F)F)c2)CCC3)c(Cl)cn1 [Compound I-164a]" target="human, KCNT1 (Homo sapiens (Human), UniProt Q5JUK3)" measured_parameter=IC50 meas_value="< 250 nM"
molecule="O=C(N[C@H]1CCCCc2nn(-c3ccnc(C4CC4)c3)cc21)c1cccc(C(F)(F)F)c1 [Compound I-60a]" target="human, KCNT1 (Homo sapiens (Human), UniProt Q5JUK3)" measured_parameter=IC50 meas_value="< 250 nM"
molecule="O=C(N[C@H]1CCCn2nc(-c3cc(C(F)(F)F)ncc3F)nc21)c1cncc(C(F)(F)F)n1 [Compound I-182a]" target="human, KCNT1 (Homo sapiens (Human), UniProt Q5JUK3)" measured_parameter=IC50 meas_value="500 to 1000 nM"
molecule="COc1cc(-c2cc3n(n2)CC[C@@H]3NC(=O)c2cnn(C(F)(F)F)c2)ccn1 [Compound I-255a]" target="human, KCNT1 (Homo sapiens (Human), UniProt Q5JUK3)" measured_parameter=IC50 meas_value="< 250 nM"
molecule="O=C(N[C@H]1CCCc2oc(-c3ccnc(C(F)(F)F)c3)nc21)c1cn(C(F)(F)F)nc1C(F)F [Compound I-506a]" target="human, KCNT1 (Homo sapiens (Human), UniProt Q5JUK3)" measured_parameter=IC50 meas_value="< 250 nM"
molecule="O=C(N[C@H]1CCCc2nc(-c3ccnc(C(F)(F)F)c3)oc21)c1cc(Cl)cc(Cl)c1 [Compound I-185a]" target="human, KCNT1 (Homo sapiens (Human), UniProt Q5JUK3)" measured_parameter=IC50 meas_value="< 250 nM"
molecule="Cc1cnc(C(F)(F)F)cc1-c1cc2n(n1)CCC[C@@H]2NC(=O)c1cc(C(F)(F)F)nn1C [Compound I-122a]" target="human, KCNT1 (Homo sapiens (Human), UniProt Q5JUK3)" measured_parameter=IC50 meas_value="< 250 nM"
